tested_on: HLA-A*24:02
protocol_text: IEDB peptide-MHC binding, purified MHC/competitive/radioactivity; filed as Kd, often an IC50 or EC50 that approximates it; bounds were set here for any values at or beyond the usual limits of such assays
run_parameters: source organism: human papillomavirus 18
pKd: −log10 of the molar value.
quantity_measured: pKd

item_sequence=VYGDTLEKL reported_measurement=6.65
item_sequence=RHTMLCMCC reported_measurement=6.13
item_sequence=VYCKTVLEL reported_measurement=7.62

* * *

tested_on: HLA-A*11:02
protocol_text: IEDB peptide-MHC binding, purified MHC/competitive/radioactivity; filed as Kd, often an IC50 or EC50 that approximates it; bounds were set here for any values at or beyond the usual limits of such assays
run_parameters: source organism: human papillomavirus 18
# Lookup of reported Kd keyed by entry
quantity_measured: Kd (nM)

item_sequence=VYCKTVLEL quantity_measured=Kd unit_of_measure=nM reported_measurement=563
item_sequence=VVYRDSIPH quantity_measured=Kd unit_of_measure=nM reported_measurement=5
item_sequence=ATLQDIVLH quantity_measured=Kd unit_of_measure=nM reported_measurement=12
item_sequence=TEVFEFAFK quantity_measured=Kd unit_of_measure=nM reported_measurement=257
item_sequence=FKDLFVVYR quantity_measured=Kd unit_of_measure=nM reported_measurement=500
item_sequence=CIDFYSRIR quantity_measured=Kd unit_of_measure=nM reported_measurement=27
item_sequence=LIRCLRCQK quantity_measured=Kd unit_of_measure=nM reported_measurement=375
item_sequence=RCQKPLNPA quantity_measured=Kd unit_of_measure=nM reported_measurement=563
item_sequence=GLYNLLIRC quantity_measured=Kd unit_of_measure=nM reported_measurement=188
item_sequence=HTMLCMCCK quantity_measured=Kd unit_of_measure=nM reported_measurement=5
item_sequence=SVYGDTLEK quantity_measured=Kd unit_of_measure=nM reported_measurement=2
item_sequence=SIPHAACHK quantity_measured=Kd unit_of_measure=nM reported_measurement=15
item_sequence=GQCHSCCNR quantity_measured=Kd unit_of_measure=nM reported_measurement=64
